biological target: Recombinant human renin (Homo sapiens); construct: isolate the active form (residues 67-406); made in house; host or cells: FreeStyle 293-F cells (transient expression of pcDNA3.1(+)/hREN); assay: In vitro enzymatic activity assay of renin inhibitors (fluorogenic peptide substrate); format: biochemical; settings: read-out: IC50 of Exemplified Compounds Against Renin
Measured IC50 accompanies every entry in the list below.

molecule: COCCCn1c([C@@H]2CCCN(C(=O)C[C@H](N)Cc3ccc4ccccc4c3)C2)nc2ccc([N+](=O)[O-])cc21
IC50: > 1000 nM
//
molecule: COCCCn1c([C@@H]2CCCN(C(=O)C[C@H](N)CNC(=O)c3cccc(N4CCCCC4)n3)C2)nc2ccccc21
IC50: 100 to 1000 nM

// IC50 lookup, molecule = O=C(NC(=O)N1CCCC(c2nc3ccccc3[nH]2)C1)c1ccccc1 (stereo not shown) , result: > 1000 nM

// IC50 lookup, molecule = COCCCc1nc2ccccc2n1[C@@H]1CCCN(C(=O)C[C@H](N)Cc2ccc3ccccc3c2)C1 , result: > 1000 nM

// IC50 lookup, molecule = COCCCn1c([C@@H]2CCCN(C(=O)[C@@H]3CN(C(=O)c4cccnc4Oc4ccccc4)C[C@H]3N)C2)nc2ccccc21 , result: 100 to 1000 nM

// IC50 lookup, molecule = COCCCn1c([C@@H]2CCCN(C(=O)[C@@H]3CN(C(=O)c4cccc(C(=O)OC)c4)C[C@H]3N)C2)nc2ccccc21 , result: 100 to 1000 nM

// IC50 lookup, molecule = COCCCn1c([C@@H]2CCCN(C(=O)C[C@H](N)Cc3ccc(-c4ccc5c(c4)OCCN5C)cc3)C2)nc2ccccc21 , result: < 100 nM

// IC50 lookup, molecule = C[C@H](N)C(=O)N1CCCC(c2nc3ccccc3[nH]2)C1 (stereo partly shown) , result: > 1000 nM

// IC50 lookup, molecule = COCCCn1c([C@@H]2CCCN(C(=O)C[C@H](N)CNC(=O)NC3CCCCC3)C2)nc2ccccc21 , result: > 1000 nM

// IC50 lookup, molecule = COCCCn1c([C@@H]2CCCN(C(=O)[C@@H]3CN(S(=O)(=O)c4ccc(C)cc4C)C[C@H]3N)C2)nc2ccccc21 , result: 100 to 1000 nM

====

Measured pIC50 accompanies every entry in the list below.
Target: Recombinant human renin (Homo sapiens)
Construct: isolate the active form (residues 67-406); made in house; host or cells: FreeStyle 293-F cells (transient expression of pcDNA3.1(+)/hREN)
Sequence (P00797 67-406): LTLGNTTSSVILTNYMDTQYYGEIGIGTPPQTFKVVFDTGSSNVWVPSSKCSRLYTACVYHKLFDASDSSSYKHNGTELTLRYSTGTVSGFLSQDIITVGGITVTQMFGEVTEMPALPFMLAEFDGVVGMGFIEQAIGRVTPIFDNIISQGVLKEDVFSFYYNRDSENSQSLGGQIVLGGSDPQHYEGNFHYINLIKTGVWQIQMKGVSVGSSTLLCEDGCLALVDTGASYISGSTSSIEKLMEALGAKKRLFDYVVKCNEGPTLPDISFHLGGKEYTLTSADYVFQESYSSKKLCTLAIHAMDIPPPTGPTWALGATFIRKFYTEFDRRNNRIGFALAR
Experiment: In vitro enzymatic activity assay of renin inhibitors (fluorogenic peptide substrate)
Assay type: biochemical
Conditions: read-out: IC50 of Exemplified Compounds Against Renin
Description: Test compounds in varying concentrations may be reacted with recombinant human renin in the presence of substrate, e.g., QXL520-γ-Abu-[…](HiLyteFluo488)-Arg-OH (Anaspec, San Jose, Calif.). […] Inhibition constants (IC50) may be calculated by non-linear curve fitting of the compound concentrations and fluorescence intensities to the standard IC50 equation. […] The fluorescence intensity is determined upon the addition of substrate and determined again after incubation at 37° C. for one hour. […]
pIC50: −log10 of the molar value.

Use the examples below as a reference point.
molecule: COCCCn1c([C@@H]2CCCN(C(=O)C[C@H](N)Cc3ccc(-c4ccc(N(C)C)cc4)cc3)C2)nc2ccccc21
reported.value: > 7.00
//
molecule: COCCCn1c([C@@H]2CCCN(C(=O)C[C@H](N)Cc3ccc(Cl)cc3)C2)nc2ccccc21
reported.value: 6.00 to 7.00
//
molecule: N[C@@H](CC(=O)N1CCCC(c2nc3ccccc3[nH]2)C1)Cc1csc2ccccc12 (some centres unmarked)
reported.value: < 6.00
//
molecule: COCCCn1c([C@@H]2CCCN(C(=O)C[C@H](N)CNC(=O)c3ccc(C)c(C)c3)C2)nc2ccccc21
reported.value: 6.00 to 7.00
//
molecule: COCCCn1c(C2CCCN(C(=O)C[C@H](N)Cc3ccc4ccccc4c3)C2)nc2ccc(CO)cc21 (some centres unmarked)
reported.value: 6.00 to 7.00

Would you kindly look at the next entry?
// pIC50 lookup, molecule = COCCCn1c([C@@H]2CCCN(C(=O)C[C@@H](N)COc3nc4ccccc4[nH]3)C2)nc2ccccc21 , result: 6.00 to 7.00

Ref: patent US8138168B1
